# assay_summary: clinical
# condition_set: human, plasma, oral, 16 mg, Tmax, Week 3; TIW 16 mg, n = 1; median
endpoint: Tmax
Please state the value followed by its unit.

[ask] Tell me its Tmax given C=CC(=O)N1CC[C@H](n2nc(C#Cc3cc(OC)cc(OC)c3)c3c(N)ncnc32)C1 [futibatinib] as the entry.
[reply] 2.9 h

---

# assay_summary: clinical
# condition_set: human, plasma, oral, 16 mg, Tmax, Day 1; QD 16 mg, n = 3; median (minimum, maximum)
endpoint: Tmax
Write the numeric value and follow it with the unit.

[ask] Identify measured Tmax corresponding to C=CC(=O)N1CC[C@H](n2nc(C#Cc3cc(OC)cc(OC)c3)c3c(N)ncnc32)C1 [futibatinib]
[reply] 57 min

---

# assay_summary: clinical
# condition_set: human, plasma, oral, 20 mg, AUC0–inf, Week 3 (day 21); QD 20 mg, n = 2; mean
endpoint: AUC(0-inf) (ng·h/mL)
Express it in ng·h/mL; write the number only.

[ask] Note AUC(0-inf) for the compound shown: `C=CC(=O)N1CC[C@H](n2nc(C#Cc3cc(OC)cc(OC)c3)c3c(N)ncnc32)C1`
[reply] 729

---

# assay_summary: clinical
# condition_set: human, plasma, oral, 16 mg, AUC0–inf, Week 3; TIW 16 mg, n = 1
endpoint: AUC(0-inf) (ng·h/mL)
Just the number in ng·h/mL, nothing appended.

[ask] Return value of AUC(0-inf) for input C=CC(=O)N1CC[C@H](n2nc(C#Cc3cc(OC)cc(OC)c3)c3c(N)ncnc32)C1 [futibatinib] , no commentary.
[reply] 1580

---

# assay_summary: clinical
# condition_set: human, plasma, oral, 8 mg, t1/2, Day 1; TIW 8 mg, n = 1
endpoint: half-life (h)
Please reply with the bare figure in h and do not write the unit itself.

[ask] Could you please provide reported half-life for `C=CC(=O)N1CC[C@H](n2nc(C#Cc3cc(OC)cc(OC)c3)c3c(N)ncnc32)C1` ? Thanks!
[reply] 1.58

---

# assay_summary: clinical
# condition_set: human, plasma, oral, 20 mg, AUC0–last, Day 1; QD 20 mg, n = 7; mean (standard deviation)
endpoint: AUC(0-t) (ng·h/mL)
Response body: numeric value in ng·h/mL, unit text excluded.

[ask] Given the compound `C=CC(=O)N1CC[C@H](n2nc(C#Cc3cc(OC)cc(OC)c3)c3c(N)ncnc32)C1` , write its reported AUC(0-t).
[reply] 977

---

# assay_summary: clinical
# condition_set: human, plasma, oral, 24 mg, t1/2, Week 3; TIW 24 mg, n = 1
endpoint: half-life
Please report the result as a number followed by the unit.

[ask] For the compound `C=CC(=O)N1CC[C@H](n2nc(C#Cc3cc(OC)cc(OC)c3)c3c(N)ncnc32)C1` , give its reported half-life.
[reply] 1.47 h

---

# assay_summary: clinical
# condition_set: human, plasma, oral, 16 mg, t1/2, Day 1; QD 16 mg, n = 3; mean (standard deviation)
endpoint: half-life (h)
Give the quantity in h, number only.

[ask] Give half-life for the following compound: `C=CC(=O)N1CC[C@H](n2nc(C#Cc3cc(OC)cc(OC)c3)c3c(N)ncnc32)C1`
[reply] 2.68

---

# assay_summary: clinical
# condition_set: human, plasma, oral, 8 mg, Cmax, Day 1; TIW 8 mg, n = 1
endpoint: Cmax (ng/mL)
Field: numeric (ng/mL). Do not append units.

[ask] Identify the reported Cmax for the following entry. `C=CC(=O)N1CC[C@H](n2nc(C#Cc3cc(OC)cc(OC)c3)c3c(N)ncnc32)C1`
[reply] 135
